system: human cloned 5-HT6 receptors (Homo sapiens)
Construct: expressed in transfected cells; host or cells: HeLa cells
experimental-details: 5-HT6 binding affinity, [3H]-LSD displacement on membranes of Hela cells
study-conditions: read-out: 5-HT6 Binding Ki
measured-endpoint: Ki (nM)
Give your result in nM as a bare value.

CC(C)Cn1nc(S(=O)(=O)c2cccc3ccccc23)c2cc(N3CC[C@@H](N)C3)ccc21
36.9
NC1CCN(c2ccc3[nH]nc(S(=O)(=O)c4cccc(Cl)c4)c3c2)CC1
8

Now consider a different molecule.
Task item: Read off the recorded Ki for Cn1nc(S(=O)(=O)c2cccc3ccccc23)c2cc(N3CC[C@@H](N)C3)ccc21
Reply: 21.1

---

system: human cloned 5-HT6 receptors (Homo sapiens)
Construct: expressed in transfected cells; host or cells: HeLa cells
experimental-details: 5-HT6 binding affinity, [3H]-LSD displacement on membranes of Hela cells
pKi overview
In simple prose, pKi is minus the logarithm base ten of a concentration in moles per litre.

Reference set, count: 2
CC(C)n1nc2ccc(N3CC[C@H](N)C3)cc2c1S(=O)(=O)c1cccc2ccccc12 [Example 19]
7.31
CC(C)Cn1nc2ccc(N3CC[C@H](N)C3)cc2c1S(=O)(=O)c1cccc2ccccc12 [Example 20]
7.12

Task item: Answer with reported pKi of Cn1nc2ccc(N3CC[C@H](N)C3)cc2c1S(=O)(=O)c1cccc2ccccc12 [Example 18]
Reply: 7.27

---

system: human cloned 5-HT6 receptors (Homo sapiens, UniProt P50406)
Construct: expressed in transfected cells; host or cells: HeLa cells
Sequence (P50406 whole entry): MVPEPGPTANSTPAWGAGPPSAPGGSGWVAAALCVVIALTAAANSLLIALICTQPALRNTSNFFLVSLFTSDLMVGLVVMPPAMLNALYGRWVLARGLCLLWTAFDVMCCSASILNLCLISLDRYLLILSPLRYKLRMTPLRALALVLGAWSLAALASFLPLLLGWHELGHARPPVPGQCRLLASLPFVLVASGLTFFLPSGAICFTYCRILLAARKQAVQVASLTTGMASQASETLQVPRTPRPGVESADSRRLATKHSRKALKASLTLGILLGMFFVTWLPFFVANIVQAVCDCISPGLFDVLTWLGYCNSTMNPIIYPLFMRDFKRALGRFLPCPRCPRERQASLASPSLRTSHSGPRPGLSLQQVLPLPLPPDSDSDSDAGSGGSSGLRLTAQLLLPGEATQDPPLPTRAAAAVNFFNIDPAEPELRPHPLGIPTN
experimental-details: 5-HT6 binding affinity, [3H]-LSD displacement on membranes of Hela cells
study-conditions: [3H]-LSD 3.0 nM, Hela cell membranes, 120 min, room temperature; read-out: 5-HT6 Binding Ki
measured-endpoint: Ki (nM)
Give the value in nM but do not write nM after it.

The following molecules have reported results that may help.
NC1CN(c2ccc3[nH]nc(S(=O)(=O)c4cccc5ccccc45)c3c2)C1
3.5
N[C@@H]1CCN(c2ccc3[nH]nc(S(=O)(=O)c4ccccc4)c3c2)C1
146

Task item: State its Ki for this molecule: CC(C)n1nc(S(=O)(=O)c2cccc3ccccc23)c2cc(N3CC[C@@H](N)C3)ccc21
Reply: 13.7

Task item: Answer with the recorded Ki of CN(C)[C@H]1CCN(c2ccc3[nH]nc(S(=O)(=O)c4cccc5ccccc45)c3c2)C1 only.
Reply: 50

Task item: Give Ki for CN(C)[C@@H]1CCN(c2ccc3[nH]nc(S(=O)(=O)c4cccc5ccccc45)c3c2)C1
Reply: 1.1

Task item: Return value of Ki for input NC1CN(c2ccc3[nH]nc(S(=O)(=O)c4ccccc4)c3c2)C1 , no commentary.
Reply: 1.1

Task item: Look up Ki of N[C@H]1CCN(c2ccc3[nH]nc(S(=O)(=O)c4ccccc4)c3c2)C1 and report it.
Reply: 131

These data points were gathered from patent US7939520B2.
